Assay: Plasma pharmacokinetics of DT2216 in patients, phase 1 dose escalation
Assay type: in vivo, human
Details: human, plasma, iv, 0.24 mg/kg, Cycle 1 Day 22, 0.24 mg/kg IV BIW, plasma, mean (CV%), N = 6; read-out: CL (converted)
Description: Dose escalation consisted of the administration of DT2216 intravenously twice weekly at several different doses outlined in protocol attached. The starting dose was 0.04 mg/kg, established based on pre-clinical toxicity studies. Safety was evaluated using CTCAE version 5.0. […] Patients were allowed a maximum of two intra-patient dose escalations. […] The extent of disease was evaluated using imaging studies and disease-appropriate tumor markers every 8 weeks from day 1 of the first cycle. […]
property_label: clearance (mL/min/kg)
One number for each entry, in mL/min/kg.

In: Recorded clearance of Cc1ncsc1-c1ccc([C@H](C)NC(=O)[C@@H]2C[C@@H](O)CN2C(=O)[C@@H](NC(=O)CCCCCC(=O)N2CCN(CC[C@H](CSc3ccccc3)Nc3ccc(S(=O)(=O)NC(=O)c4ccc(N5CCN(CC6=C(c7ccc(Cl)cc7)CCC(C)(C)C6)CC5)cc4)cc3S(=O)(=O)C(F)(F)F)CC2)C(C)(C)C)cc1 [DT2216] , please.
Out: 0.15

---

Assay: Plasma pharmacokinetics of DT2216 in patients, phase 1 dose escalation
Assay type: in vivo, human
Conditions: human, plasma, iv, 0.4 mg/kg, Cycle 1 Day 1, 0.4 mg/kg IV, plasma, mean (CV%), N = 4; read-out: T½ (converted)
Protocol: Dose escalation consisted of the administration of DT2216 intravenously twice weekly at several different doses outlined in protocol attached. The starting dose was 0.04 mg/kg, established based on pre-clinical toxicity studies. Safety was evaluated using CTCAE version 5.0. […] Patients were allowed a maximum of two intra-patient dose escalations. […] The extent of disease was evaluated using imaging studies and disease-appropriate tumor markers every 8 weeks from day 1 of the first cycle. […]
property_label: half-life (h)
Numbers only, in h.

In: Which measured half-life value corresponds to Cc1ncsc1-c1ccc([C@H](C)NC(=O)[C@@H]2C[C@@H](O)CN2C(=O)[C@@H](NC(=O)CCCCCC(=O)N2CCN(CC[C@H](CSc3ccccc3)Nc3ccc(S(=O)(=O)NC(=O)c4ccc(N5CCN(CC6=C(c7ccc(Cl)cc7)CCC(C)(C)C6)CC5)cc4)cc3S(=O)(=O)C(F)(F)F)CC2)C(C)(C)C)cc1 [DT2216] ?
Out: 10.7

---

Assay: Plasma pharmacokinetics of DT2216 in patients, phase 1 dose escalation
Assay type: in vivo, human
Details: human, plasma, iv, 0.24 mg/kg, Cycle 1 Day 22, 0.24 mg/kg IV BIW, plasma, mean (CV%), N = 6; read-out: AUC0−24
property_label: AUC(0-t) (ng·h/mL)
Answers are plain numbers, in ng·h/mL.

In: # get_value(readout='AUC(0-t)', item= `Cc1ncsc1-c1ccc([C@H](C)NC(=O)[C@@H]2C[C@@H](O)CN2C(=O)[C@@H](NC(=O)CCCCCC(=O)N2CCN(CC[C@H](CSc3ccccc3)Nc3ccc(S(=O)(=O)NC(=O)c4ccc(N5CCN(CC6=C(c7ccc(Cl)cc7)CCC(C)(C)C6)CC5)cc4)cc3S(=O)(=O)C(F)(F)F)CC2)C(C)(C)C)cc1` )
Out: 26300

---

Assay: Plasma pharmacokinetics of DT2216 in patients, phase 1 dose escalation
Format: in vivo, human
Settings: human, plasma, iv, 0.04 mg/kg, Cycle 1 Day 1, 0.04 mg/kg IV, plasma, mean (CV%), N = 1; read-out: AUC0−24
property_label: AUC(0-t) (ng·h/mL)
One number for each entry, in ng·h/mL.

In: Requested field: AUC(0-t). Item: `Cc1ncsc1-c1ccc([C@H](C)NC(=O)[C@@H]2C[C@@H](O)CN2C(=O)[C@@H](NC(=O)CCCCCC(=O)N2CCN(CC[C@H](CSc3ccccc3)Nc3ccc(S(=O)(=O)NC(=O)c4ccc(N5CCN(CC6=C(c7ccc(Cl)cc7)CCC(C)(C)C6)CC5)cc4)cc3S(=O)(=O)C(F)(F)F)CC2)C(C)(C)C)cc1`
Out: 5920

---

Assay: Plasma pharmacokinetics of DT2216 in patients, phase 1 dose escalation
Assay type: in vivo, human
Conditions: human, plasma, iv, 0.4 mg/kg, Cycle 1 Day 22, 0.4 mg/kg IV BIW, plasma, median (min, max), N = 4
property_label: Tmax (h)
One number for each entry, in h.

In: Tell me the measured Tmax of Cc1ncsc1-c1ccc([C@H](C)NC(=O)[C@@H]2C[C@@H](O)CN2C(=O)[C@@H](NC(=O)CCCCCC(=O)N2CCN(CC[C@H](CSc3ccccc3)Nc3ccc(S(=O)(=O)NC(=O)c4ccc(N5CCN(CC6=C(c7ccc(Cl)cc7)CCC(C)(C)C6)CC5)cc4)cc3S(=O)(=O)C(F)(F)F)CC2)C(C)(C)C)cc1 [DT2216] , please.
Out: 2.5

---

Experiment: Plasma pharmacokinetics of DT2216 in patients, phase 1 dose escalation
Type: in vivo, human
Settings: human, plasma, intravenous, consistent across the dose groups; read-out: volume of distribution at steady state (Vss)
property_label: Vd

In: Vd for `Cc1ncsc1-c1ccc([C@H](C)NC(=O)[C@@H]2C[C@@H](O)CN2C(=O)[C@@H](NC(=O)CCCCCC(=O)N2CCN(CC[C@H](CSc3ccccc3)Nc3ccc(S(=O)(=O)NC(=O)c4ccc(N5CCN(CC6=C(c7ccc(Cl)cc7)CCC(C)(C)C6)CC5)cc4)cc3S(=O)(=O)C(F)(F)F)CC2)C(C)(C)C)cc1` ?
Out: < 0.1 L/kg

---

Test: Plasma pharmacokinetics of DT2216 in patients, phase 1 dose escalation
Assay type: in vivo, human
Settings: human, plasma, iv, 0.12 mg/kg, Cycle 1 Day 1, 0.12 mg/kg IV, plasma, mean (CV%), N = 1; read-out: CL (converted)
property_label: clearance (mL/min/kg)
Numbers only, in mL/min/kg.

In: Using the record for `Cc1ncsc1-c1ccc([C@H](C)NC(=O)[C@@H]2C[C@@H](O)CN2C(=O)[C@@H](NC(=O)CCCCCC(=O)N2CCN(CC[C@H](CSc3ccccc3)Nc3ccc(S(=O)(=O)NC(=O)c4ccc(N5CCN(CC6=C(c7ccc(Cl)cc7)CCC(C)(C)C6)CC5)cc4)cc3S(=O)(=O)C(F)(F)F)CC2)C(C)(C)C)cc1` , report its clearance.
Out: 0.111

---

Assay: Plasma pharmacokinetics of DT2216 in patients, phase 1 dose escalation
Type: in vivo, human
Details: human, plasma, iv, 0.08 mg/kg, Cycle 1 Day 1, 0.08 mg/kg IV, plasma, mean (CV%), N = 1; read-out: AUC0−∞
property_label: AUC(0-inf)
Please format your answer as a value with the unit trailing.

In: Quick one: AUC(0-inf) for `Cc1ncsc1-c1ccc([C@H](C)NC(=O)[C@@H]2C[C@@H](O)CN2C(=O)[C@@H](NC(=O)CCCCCC(=O)N2CCN(CC[C@H](CSc3ccccc3)Nc3ccc(S(=O)(=O)NC(=O)c4ccc(N5CCN(CC6=C(c7ccc(Cl)cc7)CCC(C)(C)C6)CC5)cc4)cc3S(=O)(=O)C(F)(F)F)CC2)C(C)(C)C)cc1` ?
Out: 19500 ng·h/mL

---

Assay: Plasma pharmacokinetics of DT2216 in patients, phase 1 dose escalation
Assay type: in vivo, human
Details: human, plasma, iv, 0.32 mg/kg, Cycle 1 Day 22, 0.32 mg/kg IV BIW, plasma, mean (CV%), N = 5; read-out: AUC0−24
property_label: AUC(0-t) (ng·h/mL)
One number for each entry, in ng·h/mL.

In: For the molecule `Cc1ncsc1-c1ccc([C@H](C)NC(=O)[C@@H]2C[C@@H](O)CN2C(=O)[C@@H](NC(=O)CCCCCC(=O)N2CCN(CC[C@H](CSc3ccccc3)Nc3ccc(S(=O)(=O)NC(=O)c4ccc(N5CCN(CC6=C(c7ccc(Cl)cc7)CCC(C)(C)C6)CC5)cc4)cc3S(=O)(=O)C(F)(F)F)CC2)C(C)(C)C)cc1` , what AUC(0-t) is on record?
Out: 32700

---

Assay: Plasma pharmacokinetics of DT2216 in patients, phase 1 dose escalation
Type: in vivo, human
Conditions: human, plasma, iv, 0.24 mg/kg, Cycle 1 Day 1, 0.24 mg/kg IV, plasma, mean (CV%), N = 7; read-out: AUC0−∞
property_label: AUC(0-inf) (ng·h/mL)
One number for each entry, in ng·h/mL.

In: Param item = `Cc1ncsc1-c1ccc([C@H](C)NC(=O)[C@@H]2C[C@@H](O)CN2C(=O)[C@@H](NC(=O)CCCCCC(=O)N2CCN(CC[C@H](CSc3ccccc3)Nc3ccc(S(=O)(=O)NC(=O)c4ccc(N5CCN(CC6=C(c7ccc(Cl)cc7)CCC(C)(C)C6)CC5)cc4)cc3S(=O)(=O)C(F)(F)F)CC2)C(C)(C)C)cc1` ; retrieve measured AUC(0-inf).
Out: 36500
